Values compiled from patent US12201610B2.

protocol: Phase 1 PK Part 1: relative bioavailability, dose proportionality, food effect of unmilled API tablet
Type: in vivo, human
condition_parameters: human, plasma, po, 10 mg, Relative BA, completers; Treatment A (Reference): 2 × 5 mg oral capsule, fasting; read-out: Geometric Mean Cmax
endpoint_label: Cmax (ng/mL)

1) Cc1cc(C)cc(C2CCCN2Cc2ccc(Oc3ccc(C(N)=O)cc3F)cc2)c1 (stereo not shown) [aticaprant] : 30.2

###

protocol: Phase 1 PK Part 1: relative bioavailability, dose proportionality, food effect of unmilled API tablet
Assay type: in vivo, human
condition_parameters: human, plasma, oral, 10 mg, Relative BA, completers; Treatment B (Test): 1 × 10 mg Formulation Concept 1, fasting; read-out: Geometric Mean AUClast
endpoint_label: AUC(0-t) (ng·h/mL)

1) Cc1cc(C)cc(C2CCCN2Cc2ccc(Oc3ccc(C(N)=O)cc3F)cc2)c1 (stereo not shown) : 271
